Values were extracted from ChEMBL document CHEMBL1155944.

measurement_target: Gamma-aminobutyric acid receptor subunit alpha-1 (Rattus norvegicus, UniProt P62813+P63138)
Sequence (P62813 whole entry, one chain of several): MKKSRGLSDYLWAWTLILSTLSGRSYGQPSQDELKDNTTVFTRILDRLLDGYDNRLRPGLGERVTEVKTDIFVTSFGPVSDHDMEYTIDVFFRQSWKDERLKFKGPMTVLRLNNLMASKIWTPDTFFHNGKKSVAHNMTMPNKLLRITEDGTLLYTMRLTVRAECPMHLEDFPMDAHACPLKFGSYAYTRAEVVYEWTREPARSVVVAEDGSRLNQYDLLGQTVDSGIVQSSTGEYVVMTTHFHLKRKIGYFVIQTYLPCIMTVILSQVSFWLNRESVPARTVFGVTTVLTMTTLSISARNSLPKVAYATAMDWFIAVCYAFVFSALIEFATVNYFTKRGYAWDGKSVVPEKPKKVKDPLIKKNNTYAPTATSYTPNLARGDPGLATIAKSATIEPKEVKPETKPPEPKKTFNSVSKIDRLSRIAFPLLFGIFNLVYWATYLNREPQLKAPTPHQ
procedure_details: Agonist activity at rat wild type GABAA alpha-1-beta-2 receptor expressed in Xenopus laevis oocytes at -60 mV by Two-Electrode voltage clamp method
pEC50: −log10 of the molar value.

{"structure_smiles_string": "Cl.Sc1nnc(C2CCNCC2)o1", "pEC50": 2.02}

---

Species: Rattus norvegicus
procedure_details: Displacement of [3H]Muscimol from GABAA alpha-1-alpha-5 receptor in Sprague-Dawley rat brain cortex membrane at 100 uM

{"compound": "Oc1nnc(C2CCCNC2)o1 (stereo not drawn)", "inhibition, %": 1}
{"compound": "Cc1nnc(S)o1", "inhibition, %": 20}
{"compound": "Oc1nnc([C@@H]2CCCN2)o1", "inhibition, %": 5}

---

Listed below: inhibition values for each entry.
Species on record: Rattus norvegicus
procedure_details: Displacement of [3H]Muscimol from GABAA alpha-1-alpha-5 receptor in Sprague-Dawley rat brain cortex membrane at 100 uM
measured_attribute: inhibition (%)

{"structure_smiles_string": "c1ccc(CN2CCC(c3nnco3)CC2)cc1", "quantitative_result": -5}
{"structure_smiles_string": "S=c1[nH]nc(C2CCCCC2)o1", "quantitative_result": 10}
{"structure_smiles_string": "NCc1nnc(O)n1Cc1ccccc1", "quantitative_result": 4}
{"structure_smiles_string": "Oc1nnc(C2CCN(Cc3ccccc3)CC2)o1", "quantitative_result": 12}

---

measurement_target: Gamma-aminobutyric acid receptor subunit alpha-6 (Rattus norvegicus) (UniProt P30191)
Sequence (P30191 whole entry): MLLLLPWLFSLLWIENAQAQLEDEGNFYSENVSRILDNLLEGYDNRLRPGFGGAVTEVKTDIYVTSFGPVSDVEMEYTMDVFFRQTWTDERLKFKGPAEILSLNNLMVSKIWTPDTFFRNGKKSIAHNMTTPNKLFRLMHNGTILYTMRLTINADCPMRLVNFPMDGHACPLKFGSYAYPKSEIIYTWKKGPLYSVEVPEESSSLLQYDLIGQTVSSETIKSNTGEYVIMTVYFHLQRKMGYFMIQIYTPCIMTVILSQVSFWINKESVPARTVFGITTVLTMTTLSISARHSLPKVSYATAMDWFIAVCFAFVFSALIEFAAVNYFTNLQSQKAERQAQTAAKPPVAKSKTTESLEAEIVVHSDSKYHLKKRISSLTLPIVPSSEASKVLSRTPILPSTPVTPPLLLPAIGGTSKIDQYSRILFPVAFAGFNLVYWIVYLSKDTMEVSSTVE
procedure_details: Displacement of [3H]Muscimol from GABAAalpha6 receptor in Sprague-Dawley rat brain cerebellum membrane at 100 uM
Type: tissue-based
// f strictly below 10% in inhibition; t otherwise

{"structure_smiles_string": "Cc1nnc(O)o1", "cat": "f"}
{"structure_smiles_string": "CNCc1nnc(O)o1", "cat": "t"}
{"structure_smiles_string": "Oc1nnc(C2CCNCC2)o1", "cat": "t"}
{"structure_smiles_string": "NCCc1nnc(S)o1", "cat": "t"}
{"structure_smiles_string": "CN1CCC(c2nnc(O)o2)CC1", "cat": "f"}
{"structure_smiles_string": "NCCc1nnc(O)o1", "cat": "t"}
{"structure_smiles_string": "Cc1nnc(S)o1", "cat": "f"}
{"structure_smiles_string": "Cl.Sc1nnc(C2CCNCC2)o1", "cat": "t"}
{"structure_smiles_string": "S=c1[nH]nc(C2CCCCC2)o1", "cat": "f"}
{"structure_smiles_string": "Oc1nnc(C2CCNCC2)n1Cc1ccccc1", "cat": "t"}
{"structure_smiles_string": "CNCc1nnc(S)o1", "cat": "f"}
{"structure_smiles_string": "C[C@@H](N)c1nnc(O)o1", "cat": "t"}
